Record form. Attribute: concentration at 1 h. Fill in for each entry.
assay: Plasma and total brain concentrations at 1 h post single oral administration to female C57BL/6 mice; assay type: in vivo; conditions: mouse, brain, 10 mg/kg oral gavage, read-out: Mean [brain]
Give the quantity in ng/g, number only.

Name the recorded concentration at 1 h for CC#CC(=O)N1CCC[C@H]1c1nc(-c2ccc(C(=O)Nc3ccccn3)cc2)c2c(N)nccn12 [Acalabrutinib, reference compound] . 4

Name the recorded concentration at 1 h for C=CC(=O)N1CCC[C@@H](c2cnc(C(N)=O)c3[nH]c4c(c23)CCCC4)C1 [Compound 2-4] . 39

Name the recorded concentration at 1 h for C=CC(=O)N1CCC[C@@H](n2nc(-c3ccc(Oc4ccccc4)cc3)c3c(N)ncnc32)C1 [Ibrutinib, reference compound] . 15

Name the recorded concentration at 1 h for C=CC(=O)N1CCC[C@@H](c2c(F)cc(C(N)=O)c3[nH]c4c(c23)CC2(CC4)CC2)C1 [Compound 6-2] . 18

Name the recorded concentration at 1 h for C=CC(=O)N1CCC=C(c2c(F)cc(C(N)=O)c3[nH]c4c(c23)CCCCC4)C1 [Compound 5-4] . 4

Name the recorded concentration at 1 h for C=CC(=O)N1CCC(CNc2ncnc(N)c2-c2ccc(Oc3ccccc3)cc2)CC1 [Evobrutinib, reference compound] . 11

* * *

Consider the following pIC50 values measured on BTK (Homo sapiens, UniProt Q06187).
Sequence (Q06187 whole entry): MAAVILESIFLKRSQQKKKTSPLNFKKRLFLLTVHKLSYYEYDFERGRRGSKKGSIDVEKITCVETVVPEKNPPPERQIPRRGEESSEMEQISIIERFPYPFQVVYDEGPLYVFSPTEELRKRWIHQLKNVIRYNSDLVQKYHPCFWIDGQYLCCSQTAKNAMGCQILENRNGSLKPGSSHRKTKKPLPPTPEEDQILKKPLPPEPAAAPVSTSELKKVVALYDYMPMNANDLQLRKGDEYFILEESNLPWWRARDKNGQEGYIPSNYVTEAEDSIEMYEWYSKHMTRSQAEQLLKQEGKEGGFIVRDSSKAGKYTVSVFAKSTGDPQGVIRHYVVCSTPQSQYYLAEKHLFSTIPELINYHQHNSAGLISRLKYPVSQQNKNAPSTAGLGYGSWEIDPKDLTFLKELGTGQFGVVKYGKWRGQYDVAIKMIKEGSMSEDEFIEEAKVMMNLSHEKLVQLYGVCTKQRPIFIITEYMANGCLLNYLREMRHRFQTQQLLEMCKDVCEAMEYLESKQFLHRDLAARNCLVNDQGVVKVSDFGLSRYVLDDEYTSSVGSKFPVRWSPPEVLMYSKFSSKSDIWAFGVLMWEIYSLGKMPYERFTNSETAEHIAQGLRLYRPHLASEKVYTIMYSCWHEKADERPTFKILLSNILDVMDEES
pIC50: −log10 of the molar value.

Name the recorded pIC50 for C=CC(=O)N1CCC[C@H](c2cnc(C(N)=O)c3[nH]c4c(c23)CCCC4)C1 [Compound 2-3] . ≤ 7.00

Name the recorded pIC50 for C=CC(=O)N1CCC=C(c2ccc(C(N)=O)c3[nH]c4c(c23)CC2(CC4)OCCO2)C1 [Compound 6-1] . 7.00 to 8.00

Name the recorded pIC50 for C=CC(=O)N1CCC=C(c2cnc(C(N)=O)c3[nH]c4c(c23)CCCC4)C1 [Compound 2-2] . 7.00 to 8.00

Name the recorded pIC50 for CC#CC(=O)N[C@H]1C[C@@H](F)CN(c2c(F)cc(C(N)=O)c3[nH]c4c(c23)CCC4)C1 [Compound 10-9] . 7.00 to 8.00

Name the recorded pIC50 for C=CC(=O)N1CCc2c(cccc2-c2cnc(C(N)=O)c3[nH]c4c(c23)CCCC4)C1 [Compound 2-1] . 7.00 to 8.00

Name the recorded pIC50 for C=CC(=O)N1CCc2c(cccc2-c2c(F)cc(C(N)=O)c3[nH]c4c(c23)CCCCC4)C1 (single isomer, unassigned) [Compound 5-2] . ≤ 7.00

Name the recorded pIC50 for C=CC(=O)N1CCc2c(cccc2-c2c(F)cc(C(N)=O)c3[nH]c4c(c23)CC2(CCCC2)CC4)C1 [Compound 7-14] . ≤ 7.00

* * *

Record form. Attribute: Kp at 1 h. Fill in for each entry.
Experiment: Plasma and total brain concentrations at 1 h post single oral administration to male Wistar Han rats
Assay type: in vivo
Settings: rat, brain/plasma, 10 mg/kg oral gavage, read-out: brain to plasma ratio
Experimental: The appropriate amount of test article was dissolved 10% dimethylacetamide (DMA)/90% (20% hydroxypropyl-β-cyclodextrin (HP-B-CD) w/v in water to obtain a final concentration of 1 mg/mL for oral dosing. Sonication, vortex, and homogenization was used as needed. Three male Wistar Han rats aged 6-8 weeks (200-300 grams) were dosed by oral gavage 10 mg/kg solution of the test article. At 1 h, blood and whole brains were collected. […]
Could you keep your reply to the number by itself?

Name the recorded Kp at 1 h for C=CC(=O)N1CCCC(c2c(F)cc(C(N)=O)c3[nH]c4c(c23)CCCCC4)C1 (single isomer, unassigned) [Compound 5-6] . 0.43

Name the recorded Kp at 1 h for C=CC(=O)N1CCC[C@@H](c2c(F)cc(C(N)=O)c3[nH]c4c(c23)CC2(CC4)CC2)C1 [Compound 6-2] . 0.28

Name the recorded Kp at 1 h for C=CC(=O)N1CCC[C@@H](c2c(F)cc(C(N)=O)c3[nH]c4c(c23)CCC4)C1 [Compound 10-2] . 0.29
